Values from ChEMBL document CHEMBL1150984

Each item that follows carries a reported pIC50.
measuredOn: Polyunsaturated fatty acid 5-lipoxygenase (Rattus norvegicus, UniProt P12527)
Sequence (P12527 whole entry): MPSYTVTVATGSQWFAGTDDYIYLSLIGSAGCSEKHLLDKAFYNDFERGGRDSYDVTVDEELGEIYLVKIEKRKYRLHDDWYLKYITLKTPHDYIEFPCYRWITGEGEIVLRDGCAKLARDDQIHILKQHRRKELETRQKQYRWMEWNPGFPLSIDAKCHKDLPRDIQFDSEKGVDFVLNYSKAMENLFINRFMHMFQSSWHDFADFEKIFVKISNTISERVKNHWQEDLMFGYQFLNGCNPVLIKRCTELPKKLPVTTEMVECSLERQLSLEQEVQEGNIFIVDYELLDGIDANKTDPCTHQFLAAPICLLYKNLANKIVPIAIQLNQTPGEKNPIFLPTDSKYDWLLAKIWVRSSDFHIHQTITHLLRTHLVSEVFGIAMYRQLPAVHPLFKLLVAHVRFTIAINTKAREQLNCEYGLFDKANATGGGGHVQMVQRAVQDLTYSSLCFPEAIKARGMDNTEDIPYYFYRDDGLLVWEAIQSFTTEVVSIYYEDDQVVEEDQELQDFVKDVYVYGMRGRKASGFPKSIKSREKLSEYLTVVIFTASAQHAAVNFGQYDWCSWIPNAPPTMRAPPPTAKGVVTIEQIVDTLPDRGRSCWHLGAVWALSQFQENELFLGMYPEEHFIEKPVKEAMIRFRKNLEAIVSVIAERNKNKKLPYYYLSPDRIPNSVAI
protocolDetails: biochemical
Description: Inhibitory activity against 5-lipoxygenase enzyme from RBL-1 cells
// pIC50: -log10(molar conc.)

CN(C)c1ccc(-c2nc(-c3ccc(F)cc3)c(-c3ccncc3)[nH]2)cc1 : 5.25
CC1(C)NC(c2ccc(-c3nc(-c4ccc(F)cc4)c(-c4ccncc4)[nH]3)cc2)=NO1 : 5.14
N#CN=C(N)Cc1ccc(-c2nc(-c3ccncc3)c(-c3ccc(F)cc3)[nH]2)cc1 : 5.42
Oc1ccccc1-c1nc(-c2ccc(F)cc2)c(-c2ccncc2)[nH]1 : 5.39
C[S+]([O-])c1ccc(-c2nc(-c3ccc(F)cc3)c(-c3ccnc4ccccc34)[nH]2)cc1 (stereo unspecified) : 5.14

Please look at the following compound next.
Ask: Report measured pIC50; entry is CN(Cc1ccccc1)Cc1ccc(-c2nc(-c3ccncc3)c(-c3ccc(F)cc3)[nH]2)cc1
Result: 6.10
